# targetDesc: T1, CHO-hu α11 (Homo sapiens, UniProt Q9UKX5)
# T1 construct: expressed in transfected cells; host or cells: CHO-K1
# T1 sequence (Q9UKX5 23-1188): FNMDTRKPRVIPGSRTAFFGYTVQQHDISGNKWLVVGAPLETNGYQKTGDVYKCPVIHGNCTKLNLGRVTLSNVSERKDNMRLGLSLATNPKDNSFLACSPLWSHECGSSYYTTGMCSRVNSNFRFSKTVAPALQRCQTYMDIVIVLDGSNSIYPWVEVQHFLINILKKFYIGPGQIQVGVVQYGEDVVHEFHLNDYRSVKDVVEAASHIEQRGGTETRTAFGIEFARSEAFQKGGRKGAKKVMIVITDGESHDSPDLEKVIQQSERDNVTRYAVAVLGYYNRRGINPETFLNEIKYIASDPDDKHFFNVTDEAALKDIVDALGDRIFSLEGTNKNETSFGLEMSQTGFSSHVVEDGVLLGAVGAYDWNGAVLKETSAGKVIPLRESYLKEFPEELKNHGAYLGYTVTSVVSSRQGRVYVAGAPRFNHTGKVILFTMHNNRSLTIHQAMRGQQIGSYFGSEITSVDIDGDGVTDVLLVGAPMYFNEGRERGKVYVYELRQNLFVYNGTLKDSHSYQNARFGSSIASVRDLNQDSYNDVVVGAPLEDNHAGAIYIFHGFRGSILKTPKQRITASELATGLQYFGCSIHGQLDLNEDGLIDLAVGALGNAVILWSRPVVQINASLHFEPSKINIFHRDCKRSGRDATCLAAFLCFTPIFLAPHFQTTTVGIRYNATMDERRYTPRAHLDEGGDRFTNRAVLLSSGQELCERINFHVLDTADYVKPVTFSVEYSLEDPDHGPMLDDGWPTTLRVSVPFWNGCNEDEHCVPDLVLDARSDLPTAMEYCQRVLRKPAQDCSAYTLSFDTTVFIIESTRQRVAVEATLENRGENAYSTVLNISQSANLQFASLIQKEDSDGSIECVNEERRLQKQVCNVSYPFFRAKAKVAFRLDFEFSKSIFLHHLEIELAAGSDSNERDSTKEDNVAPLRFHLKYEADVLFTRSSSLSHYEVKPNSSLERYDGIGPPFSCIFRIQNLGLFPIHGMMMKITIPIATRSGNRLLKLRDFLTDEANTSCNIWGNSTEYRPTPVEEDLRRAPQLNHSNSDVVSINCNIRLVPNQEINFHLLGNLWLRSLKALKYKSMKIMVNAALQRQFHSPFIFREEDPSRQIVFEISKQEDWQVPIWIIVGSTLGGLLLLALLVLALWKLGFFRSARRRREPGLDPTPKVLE
# T1 sequence (P05556 21-798 partner): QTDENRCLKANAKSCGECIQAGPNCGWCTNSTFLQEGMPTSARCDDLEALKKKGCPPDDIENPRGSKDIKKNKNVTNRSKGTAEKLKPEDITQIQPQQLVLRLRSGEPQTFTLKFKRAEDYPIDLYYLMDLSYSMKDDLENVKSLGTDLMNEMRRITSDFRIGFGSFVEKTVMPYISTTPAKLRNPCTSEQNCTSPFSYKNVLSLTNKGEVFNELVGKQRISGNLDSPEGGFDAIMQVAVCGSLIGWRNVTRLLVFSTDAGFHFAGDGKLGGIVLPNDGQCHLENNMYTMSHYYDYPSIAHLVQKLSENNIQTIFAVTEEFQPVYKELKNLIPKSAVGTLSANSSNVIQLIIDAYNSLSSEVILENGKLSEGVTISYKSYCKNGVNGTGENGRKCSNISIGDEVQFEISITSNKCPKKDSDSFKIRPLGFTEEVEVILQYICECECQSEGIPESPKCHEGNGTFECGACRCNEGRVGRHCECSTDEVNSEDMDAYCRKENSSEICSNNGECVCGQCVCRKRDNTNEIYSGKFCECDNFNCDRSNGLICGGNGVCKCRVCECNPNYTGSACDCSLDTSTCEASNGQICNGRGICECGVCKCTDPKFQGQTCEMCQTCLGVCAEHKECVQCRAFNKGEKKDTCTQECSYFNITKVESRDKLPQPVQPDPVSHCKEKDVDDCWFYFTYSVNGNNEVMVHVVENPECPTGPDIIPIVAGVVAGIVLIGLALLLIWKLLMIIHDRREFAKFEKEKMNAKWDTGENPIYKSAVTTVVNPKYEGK
# assayDetails: FACS antibody binding to CHO-K1 cells expressing human α11
# conditionSet: Table 13, 79E3E3 variants
Would you mind telling me the reported EC50 of each entry?
// note: answer is a bare numeric in nM

Summary for this molecule, A11BB139: 79E3E3 variant; VH SEQ ID NO: 5, VL SEQ ID NO: 22 (antibody, V domains shown) VH: QIQLVQSGAEVKKPGSSVKVSCKASGYTFTDYAMNWVRQAPGQGLEWMGWINTQTGKPTYAQKFQGRVTFTLDESTSTAYMELSSLRSEDTAVYYCTRLGTGNTKGFAYWGQGTLVTVSS VL: DIQMTQSPSSLSASVGDRVTITCKSSQSLLYSENNQDYLAWYQQKPGKVPKLLIYGASNRHTGVPSRFSGSGSGTDFTLTISSLQPEDVATYYCEQTYRYPFTFGQGTKLEIK : EC50 is 1.98

What the record says about A11BB142: 79E3E3 variant; VH SEQ ID NO: 6, VL SEQ ID NO: 22 (antibody, V domains shown) VH: QIQLVQSGAEVKKPGSSVKVSCKASGYTFTDYAMNWVRQAPGQGLEWMGWINTQTGKPTYAQKFQGRVTFTLDESTSTTYMELSSLRSEDTAVYYCARLGTGNTKGFAYWGQGTLVTVSS VL: DIQMTQSPSSLSASVGDRVTITCKSSQSLLYSENNQDYLAWYQQKPGKVPKLLIYGASNRHTGVPSRFSGSGSGTDFTLTISSLQPEDVATYYCEQTYRYPFTFGQGTKLEIK : EC50 is 2.07
